These measurements were taken from ChEMBL document CHEMBL4739716.

Listed next: entries and their corresponding Emax.
Biological target: Probable G-protein coupled receptor 139 (Homo sapiens) (UniProt Q6DWJ6)
Sequence (Q6DWJ6 whole entry): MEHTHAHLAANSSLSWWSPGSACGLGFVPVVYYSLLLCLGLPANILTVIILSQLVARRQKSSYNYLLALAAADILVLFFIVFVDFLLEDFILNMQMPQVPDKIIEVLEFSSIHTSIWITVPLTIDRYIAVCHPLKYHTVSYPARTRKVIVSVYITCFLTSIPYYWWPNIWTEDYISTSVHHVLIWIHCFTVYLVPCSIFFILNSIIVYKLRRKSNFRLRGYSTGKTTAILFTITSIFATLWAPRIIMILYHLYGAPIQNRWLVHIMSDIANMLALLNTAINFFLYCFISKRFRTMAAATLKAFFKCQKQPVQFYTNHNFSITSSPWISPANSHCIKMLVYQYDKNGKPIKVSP
Assay: Agonist activity at human GPR139 expressed in CHO-K1 cells assessed as induction of beta-arrestin 2 recruitment incubated for 90 mins by PathHunter assay relative to JNJ63533054
Assay type: cell-based
Details: filed as agonist
measuredAttribute: Emax (%)

> print(dat)
                             compoundstring  relationsymbol  numericresult
1  COc1ccnn2c(=O)n(CC(=O)N[C@@H](C)c3ccc(Cl)c(F)c3)nc12               >             80
2  C[C@H](NC(=O)Cn1nc2ncc(Cl)cn2c1=O)c1ccc(Cl)c(F)c1               =             50
3  Cc1ccn2c(=O)n(CC(=O)N[C@@H](C)c3ccc(Cl)c(F)c3)nc2c1               >             80
4  Cc1cnc2nn(CC(=O)N[C@@H](C)c3ccc(OC(F)(F)F)c(F)c3)c(=O)n2c1               =             50
5  C[C@H](NC(=O)Cn1nc2c(N3CCOCC3)ccnn2c1=O)c1ccc(Cl)c(F)c1               >             80

----------
Target: Probable G-protein coupled receptor 139 (Rattus norvegicus) (UniProt P0C0W8)
Sequence (whole entry): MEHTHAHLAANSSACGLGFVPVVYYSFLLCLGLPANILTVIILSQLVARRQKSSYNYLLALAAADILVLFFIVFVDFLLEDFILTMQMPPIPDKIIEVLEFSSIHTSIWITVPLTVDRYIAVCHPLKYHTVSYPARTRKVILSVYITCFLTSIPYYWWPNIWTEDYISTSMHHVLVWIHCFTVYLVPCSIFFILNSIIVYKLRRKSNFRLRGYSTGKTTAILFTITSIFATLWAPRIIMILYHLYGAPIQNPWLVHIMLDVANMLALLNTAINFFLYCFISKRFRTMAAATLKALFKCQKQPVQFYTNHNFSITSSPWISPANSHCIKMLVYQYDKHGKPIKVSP
Assay: Agonist activity at rat GPR139 expressed in CHO-K1 cells assessed as increase in calcium flux by calcium 5 dye based FLIPR assay relative to JNJ63533054
Format: cell-based
Details: filed as agonist
Listed next: entries and their corresponding Emax.
measuredAttribute: Emax

> print(dat)
                             compoundstring                              testedsystem  result
1  Cc1cc([C@H](C)NC(=O)Cn2nc3ccccn3c2=O)ccc1Cl  Probable G-protein coupled receptor 139 (Rattus norvegicus) (UniProt P0C0W8)   > 80%
2  COc1cccn2c(=O)n(CC(=O)N[C@@H](C)c3ccc(C)cc3)nc12  Probable G-protein coupled receptor 139 (Rattus norvegicus) (UniProt P0C0W8)     50%
3  C[C@H](NC(=O)Cn1nc2cc(N3CCC[C@@H](O)C3)ccn2c1=O)c1ccc(OC(F)(F)F)cc1  Probable G-protein coupled receptor 139 (Rattus norvegicus) (UniProt P0C0W8)   > 80%
4  C[C@H](NC(=O)Cn1nc2ccccn2c1=O)c1ccc(Cl)c(F)c1  Probable G-protein coupled receptor 139 (Rattus norvegicus) (UniProt P0C0W8)   > 80%
5  Cc1nccn2c(=O)n(CC(=O)N[C@@H](C)c3ccc(Cl)c(F)c3)nc12  Probable G-protein coupled receptor 139 (Rattus norvegicus) (UniProt P0C0W8)   > 80%
